- Assayed System: Corticotropin-releasing factor receptor 2/Corticotropin-releasing factor-binding protein (Homo sapiens, UniProt P24387+Q13324)
- Sequence (Q13324 whole entry): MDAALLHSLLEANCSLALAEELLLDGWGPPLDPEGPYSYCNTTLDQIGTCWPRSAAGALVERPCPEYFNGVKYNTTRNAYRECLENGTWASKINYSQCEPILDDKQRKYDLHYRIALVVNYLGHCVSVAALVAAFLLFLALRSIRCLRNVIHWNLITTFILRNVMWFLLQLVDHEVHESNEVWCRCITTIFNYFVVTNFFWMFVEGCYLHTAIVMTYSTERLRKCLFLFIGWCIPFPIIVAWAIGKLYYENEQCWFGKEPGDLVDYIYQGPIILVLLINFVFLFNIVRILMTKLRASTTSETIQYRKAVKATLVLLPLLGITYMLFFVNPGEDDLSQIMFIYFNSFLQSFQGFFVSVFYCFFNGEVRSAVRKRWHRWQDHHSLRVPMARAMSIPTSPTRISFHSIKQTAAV
- Sequence (P24387 whole entry): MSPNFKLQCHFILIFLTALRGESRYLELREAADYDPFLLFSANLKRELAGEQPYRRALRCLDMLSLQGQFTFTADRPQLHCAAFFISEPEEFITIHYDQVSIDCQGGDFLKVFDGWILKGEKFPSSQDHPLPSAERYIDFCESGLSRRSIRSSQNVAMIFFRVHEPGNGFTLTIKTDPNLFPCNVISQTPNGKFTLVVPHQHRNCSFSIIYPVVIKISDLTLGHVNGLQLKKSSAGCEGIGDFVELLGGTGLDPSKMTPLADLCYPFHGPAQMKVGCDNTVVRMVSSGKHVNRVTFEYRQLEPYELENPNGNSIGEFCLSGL
- Assay Details: Dose Response confirmation of uHTS hits for small molecule antagonists of the CRF-binding protein and CRF-R2 receptor complex.
- Assay type: functional
- Measurement Parameters: read-out: IC50_Mean
The source made the active and inactive calls. Cut-off read from the data, not from the text of the source: actives have a measured IC50 and inactives only a lower limit.
Use one of these outcomes when replying: active, inactive

CCc1nnc(NS(=O)(=O)c2ccc(NC(=S)NC(=O)/C=C/c3ccccc3)cc2)s1 : active
CCOC(=O)C1CCCN(C2CC(=O)N(c3ccccc3)C2=O)C1 (configuration not stated) : inactive
Cc1ccc(S(=O)(=O)N(CC(=O)Nc2ccccc2C(=O)O)c2ccc(Cl)cc2)cc1 : active
O=C1Nc2ccccc2N(O)N1c1cc(-c2cccc(Cl)c2)no1 : inactive
CN(Cc1ccccc1)S(=O)(=O)c1nnc(NC(=O)c2ccc(F)cc2)s1 : active

Q: What outcome does the record of this test show for COc1ccc(S(=O)(=O)N(CC(C)C)C2CCS(=O)(=O)C2)cc1OC (configuration not stated) ?
A: inactive

Q: What outcome does the record of this test show for `O=C(COc1ccc2ccccc2c1)N1CCN(C(=O)c2ccc([N+](=O)[O-])cc2)CC1` ?
A: inactive
